- System: Staphylococcus aureus ATCC 6538P
Each item that follows carries a reported MIC.
Report the figure in µg/mL without appending any unit label.

The examples below pair each entry with its known result.
{"Compound": "CC[C@H]1OC(=O)[C@H](C)[C@@H](O[C@H]2C[C@@](C)(OC)[C@@H](O)[C@H](C)O2)[C@H](C)[C@@H](O[C@@H]2O[C@H](C)C[C@H](N(C)C)[C@H]2O)[C@@]2(C)C[C@@H](C)C(=O)[C@H](C)[C@H]3N(CCNC(=O)c4ccccc4C=CCO2)C(=O)O[C@]13C [Example 4]", "Measured Target": "Staphylococcus aureus ATCC 6538P", "Quantity Kind": "MIC", "Test Result": 1.56}
{"Compound": "CC[C@H]1OC(=O)[C@H](C)[C@@H](O[C@H]2C[C@@](C)(OC)[C@@H](O)[C@H](C)O2)[C@H](C)[C@@H](O[C@@H]2O[C@H](C)C[C@H](N(C)C)[C@H]2O)[C@@]2(C)C[C@@H](C)C(=O)[C@H](C)[C@H]3N(CC(O)CCCCO2)C(=O)O[C@]13C (stereo partly shown) [Example 22]", "Measured Target": "Staphylococcus aureus ATCC 6538P", "Quantity Kind": "MIC", "Test Result": 1.56}
{"Compound": "CC[C@H]1OC(=O)[C@H](C)[C@@H](O[C@H]2C[C@@](C)(OC)[C@@H](O)[C@H](C)O2)[C@H](C)[C@@H](O[C@@H]2O[C@H](C)C[C@H](N(C)C)[C@H]2O)[C@@]2(C)C[C@@H](C)C(=O)[C@H](C)[C@H]3N(CC(=O)CC=CCO2)C(=O)O[C@]13C [Example 20]", "Measured Target": "Staphylococcus aureus ATCC 6538P", "Quantity Kind": "MIC", "Test Result": 3.1}
{"Compound": "CC[C@H]1OC(=O)[C@H](C)[C@@H](O[C@H]2C[C@@](C)(OC)[C@@H](O)[C@H](C)O2)[C@H](C)[C@@H](O[C@@H]2O[C@H](C)C[C@H](N(C)C)[C@H]2O)[C@@]2(C)C[C@@H](C)C(=O)[C@H](C)[C@H]3N(CC=CCO2)C(=O)O[C@]13C [Example 14]", "Measured Target": "Staphylococcus aureus ATCC 6538P", "Quantity Kind": "MIC", "Test Result": 0.2}
{"Compound": "CC[C@H]1OC(=O)[C@H](C)C(=O)[C@H](C)[C@@H](O[C@@H]2O[C@H](C)C[C@H](N(C)C)[C@H]2O)[C@@]2(C)C[C@@H](C)C(=O)[C@H](C)[C@H]3N(CCNC(=O)c4ccccc4C=CCO2)C(=O)O[C@]13C [Example 21]", "Measured Target": "Staphylococcus aureus ATCC 6538P", "Quantity Kind": "MIC", "Test Result": 1.56}

IN: What measured MIC goes with CC[C@H]1OC(=O)[C@H](C)[C@@H](O[C@H]2C[C@@](C)(OC)[C@@H](O)[C@H](C)O2)[C@H](C)[C@@H](O[C@@H]2O[C@H](C)C[C@H](N(C)C)[C@H]2O)[C@@]2(C)C[C@@H](C)C(=O)[C@H](C)[C@H]3N(CCNC(=O)Cc4ccccc4C=CCO2)C(=O)O[C@]13C [Example 6] ?
OUT: 0.78

IN: // repeat for CC[C@H]1OC(=O)[C@H](C)[C@@H](O[C@H]2C[C@@](C)(OC)[C@@H](OC(C)=O)[C@H](C)O2)[C@H](C)[C@@H](O[C@@H]2O[C@H](C)C[C@H](N(C)C)[C@H]2O)[C@@]2(C)C[C@@H](C)C(=O)[C@H](C)[C@H]3N(CCNCc4cccc(c4)C=CCO2)C(=O)O[C@]13C [Example 10] and report
OUT: 6.2

* * *

- System: Streptococcus Pheumoniae ATCC6303
Quantity Kind: MIC (µg/mL)
Report the figure in µg/mL without appending any unit label.

{"Chemical Smiles": "CC[C@H]1OC(=O)[C@H](C)C(=O)[C@H](C)[C@@H](O[C@@H]2O[C@H](C)C[C@H](N(C)C)[C@H]2O)[C@@]2(C)C[C@@H](C)C(=O)[C@H](C)[C@H]3N(CCC=CCO2)C(=O)O[C@]13C", "Quantity Kind": "MIC", "Test Result": 1}

IN: What value of MIC on Streptococcus Pheumoniae ATCC6303 does CC[C@H]1OC(=O)[C@H](C)[C@@H](O[C@H]2C[C@@](C)(OC)[C@@H](O)[C@H](C)O2)[C@H](C)[C@@H](O[C@@H]2O[C@H](C)C[C@H](N(C)C)[C@H]2O)[C@@]2(C)C[C@@H](C)C(=O)[C@H](C)[C@H]3N(CC(=O)CC=CCO2)C(=O)O[C@]13C have?
OUT: 0.25

IN: // repeat for CC[C@H]1OC(=O)[C@H](C)[C@@H](O[C@H]2C[C@@](C)(OC)[C@@H](O)[C@H](C)O2)[C@H](C)[C@@H](O[C@@H]2O[C@H](C)C[C@H](N(C)C)[C@H]2O)[C@@]2(C)C[C@@H](C)C(=O)[C@H](C)[C@H]3N(CC=CCO2)C(=O)O[C@]13C and report
OUT: 0.03

IN: // repeat for CC[C@H]1OC(=O)[C@H](C)[C@@H](O[C@H]2C[C@@](C)(OC)[C@@H](O)[C@H](C)O2)[C@H](C)[C@@H](O[C@@H]2O[C@H](C)C[C@H](N(C)C)[C@H]2O)[C@@]2(C)C[C@@H](C)C(=O)[C@H](C)[C@H]3N(CCNC(=O)c4ccccc4CC=CCO2)C(=O)O[C@]13C and report
OUT: 0.03

* * *

Each item that follows carries a reported MIC.
- System: Staphylococcus aureus ATCC 6538P
Report the figure in µg/mL without appending any unit label.

{"Molecule": "CC[C@H]1OC(=O)[C@H](C)[C@@H](O[C@H]2C[C@@](C)(OC)[C@@H](O)[C@H](C)O2)[C@H](C)[C@@H](O[C@@H]2O[C@H](C)C[C@H](N(C)C)[C@H]2O)[C@@]2(C)C[C@@H](C)C(=O)[C@H](C)[C@H]3N(CCC=CCO2)C(=O)O[C@]13C [Example 17]", "Quantity Kind": "MIC", "Result Unit": "µg/mL", "Test Result": 0.1}

IN: What measured MIC goes with CC[C@H]1OC(=O)[C@H](C)[C@@H](O[C@H]2C[C@@](C)(OC)[C@@H](O)[C@H](C)O2)[C@H](C)[C@@H](O[C@@H]2O[C@H](C)C[C@H](N(C)C)[C@H]2O)[C@](C)(O)C[C@@H](C)C(=O)[C@H](C)[C@@H](O)[C@]1(C)O [Ery. A, Erythromycin A, reference compound] ?
OUT: 0.2

* * *

Each item that follows carries a reported MIC.
- Tested on: Streptococcus Pheumoniae 5649
- Test Details: in vitro antibacterial MIC, agar dilution
- Format: cell-based
- Protocol Conditions: organism code ZZA; 35-37° C., 20 to 24 hours; unit assumed
Report the figure in µg/mL without appending any unit label.

The examples below pair each entry with its known result.
{"Molecule": "CC[C@H]1OC(=O)[C@H](C)[C@@H](O[C@H]2C[C@@](C)(OC)[C@@H](O)[C@H](C)O2)[C@H](C)[C@@H](O[C@@H]2O[C@H](C)C[C@H](N(C)C)[C@H]2O)[C@@]2(C)C[C@@H](C)C(=O)[C@H](C)[C@H]3N(CCNCc4cccc(c4)C=CCO2)C(=O)O[C@]13C", "MIC [µg/mL]": 32}
{"Molecule": "CC[C@H]1OC(=O)[C@H](C)C(=O)[C@H](C)[C@@H](O[C@@H]2O[C@H](C)C[C@H](N(C)C)[C@H]2O)[C@@]2(C)C[C@@H](C)C(=O)[C@H](C)[C@H]3N(CCOCc4ccccc4C=CCO2)C(=O)O[C@]13C", "MIC [µg/mL]": 1}
{"Molecule": "CC[C@H]1OC(=O)[C@H](C)[C@@H](O[C@H]2C[C@@](C)(OC)[C@@H](O)[C@H](C)O2)[C@H](C)[C@@H](O[C@@H]2O[C@H](C)C[C@H](N(C)C)[C@H]2O)[C@](C)(O)C[C@@H](C)C(=O)[C@H](C)[C@@H](O)[C@]1(C)O [Ery. A, Erythromycin A, reference compound]", "MIC [µg/mL]": 16}
{"Molecule": "CC[C@H]1OC(=O)[C@H](C)C(=O)[C@H](C)[C@@H](O[C@@H]2O[C@H](C)C[C@H](N(C)C)[C@H]2O)[C@@]2(C)C[C@@H](C)C(=O)[C@H](C)[C@H]3N(CCC=CCO2)C(=O)O[C@]13C", "MIC [µg/mL]": 2}
{"Molecule": "CC[C@H]1OC(=O)[C@H](C)[C@@H](O[C@H]2C[C@@](C)(OC)[C@@H](O)[C@H](C)O2)[C@H](C)[C@@H](O[C@@H]2O[C@H](C)C[C@H](N(C)C)[C@H]2O)[C@@]2(C)C[C@@H](C)C(=O)[C@H](C)[C@H]3N(CC(=O)CC=CCO2)C(=O)O[C@]13C", "MIC [µg/mL]": 1}

IN: What value of MIC on Streptococcus Pheumoniae 5649 does CC[C@H]1OC(=O)[C@H](C)[C@@H](O[C@H]2C[C@@](C)(OC)[C@@H](O)[C@H](C)O2)[C@H](C)[C@@H](O[C@@H]2O[C@H](C)C[C@H](N(C)C)[C@H]2O)[C@@]2(C)C[C@@H](C)C(=O)[C@H](C)[C@H]3N(CCC=CCO2)C(=O)O[C@]13C have?
OUT: 8

IN: // repeat for CC[C@H]1OC(=O)[C@H](C)[C@@H](O[C@H]2C[C@@](C)(OC)[C@@H](O)[C@H](C)O2)[C@H](C)[C@@H](O[C@@H]2O[C@H](C)C[C@H](N(C)C)[C@H]2O)[C@@]2(C)C[C@@H](C)C(=O)[C@H](C)[C@H]3N(CC(O)CC=CCO2)C(=O)O[C@]13C (stereo partly shown) and report
OUT: 16
